Just for reference, PubChem BioAssay AID1159580 is where these values come from.

This listing pairs compounds with measured normalized growth.
test: chemical genetic growth profiling, strain panel (AID 1159580);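 note: tested at 20 µM; growth read once vehicle control cultures reached saturation at 30 °C; 1 = growth at the plate median or of vehicle wells; lower values mean less growth of the strain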; settings: S. cerevisiae deletion strains, growth OD, locus YAL013W, strain DEP1, stronger effect = lower value
Hit rate of the full screen: of about 5,500 compounds, about 2,000 (36%) were called active. Inconclusive results (about 18%) are left out. The list shows a part of the results.

# count of solved cases: 5
c1ccc2c(c1)-c1cccc3cccc-2c13 :: 0.897 (active)
Cc1onc(-c2c(F)cccc2Cl)c1C(=O)N1CCN(c2ncccc2C(F)(F)F)CC1 :: 0.98 (inactive)
FC(F)(F)c1ccc(-n2cncn2)nc1 :: 1.03 (inactive)
CC(C(=O)O)c1ccc(CC2CCCC2=O)cc1 (stereo unspecified) :: 0.985 (inactive)
CCc1cccc(C)c1NC(=O)N1CCN(C(=O)OC(C)(C)C)CC1 :: 0.992 (inactive)

Let us move to another entry and its normalized growth.
May I ask what normalized growth has been recorded for C#CCN1C(C)=C(C(=O)OC)C(c2cccc([N+](=O)[O-])c2)C(C(=O)OCC)=C1C (stereo unspecified) ?
1.01 (inactive)

###

experiment: chemical genetic growth profiling, strain panel (AID 1159580);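 note: tested at 20 µM; growth read once vehicle control cultures reached saturation at 30 °C; 1 = growth at the plate median or of vehicle wells; lower values mean less growth of the strain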; conditions: S. cerevisiae deletion strains, growth OD, locus YJL164C, strain tpk1, stronger effect = lower value
In all, about 5,500 compounds went through this assay and about 2,000 (36%) were called active. About 18% were inconclusive and are not listed. This is one part of the list.
assay-metric: normalized growth
Format: numeric value only, no unit, no commentary.

C=C(C)c1cc2cc(C(C)=O)c(O)cc2o1 :: 0.932
COc1cc(O)c(C)c(O)c1 :: 1.03
CC(=O)N[C@@H](CC(=O)O)C(=O)O :: 1
COP(=S)(OC)SCn1nnc2ccccc2c1=O :: 0.984
CNC(=O)CSP(=S)(OC)OC :: 1.02

Look at this molecule and give its reported normalized growth. COc1cc(O)c(C(C)=O)c(OC)c1
0.976

State the recorded normalized growth for this entry: CC(=O)OCC(=O)[C@@]1(O)CCC2C3CCC4=CC(=O)CC[C@]4(C)[C@@]3(F)[C@@H](O)C[C@@]21C (some centres not stated)
1.01

# get_value(readout='normalized growth', item= CCNc1nc(Cl)nc(NC(C)C)n1 )
0.998

If you can, please state the reported normalized growth value of CC1=C(C(=O)O)N2C(=O)[C@@H](NC(=O)[C@H](N)C3=CCC=CC3)C2SC1 (some centres not stated) .
1.02

###

experiment: chemical genetic growth profiling, strain panel (AID 1159580);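 note: tested at 20 µM; growth read once vehicle control cultures reached saturation at 30 °C; 1 = growth at the plate median or of vehicle wells; lower values mean less growth of the strain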; settings: S. cerevisiae deletion strains, growth OD, locus YOL006C, strain TOP1
In all, about 5,500 compounds went through this assay and about 2,000 (36%) were called active. About 18% were inconclusive and are not listed. Cut-off read from the data, not from the text of the source: active = normalized growth mostly below about 0.91 (no sharp cut-off); inconclusive = no clear call, values can overlap the other calls; inactive = mostly above about 0.92. This is one part of the list.
Please answer using one outcome listed in active, inactive

Can you look up the reported call for CC(C)(C)c1cc(C(C)(C)C)n(-c2ccc([N+](=O)[O-])cc2)n1 for me?
inactive

For O=[N+]([O-])/N=C1/NCCN1Cc1ccc(Cl)cc1 , what call appears in the results of this test?
inactive

Check the results log: what was the call for COc1cc(O)c(C(=O)O)c(O)c1 ?
inactive

For this compound, state the assay outcome: OCCN1CCN(CCCN2c3ccccc3Sc3ccc(Cl)cc32)CC1
inactive

What was the test verdict on COc1cc(OC)c(-c2c(OC)cc(OC)cc2OC)c(OC)c1 ?
inactive

What classification did CCOC(=O)c1csc(N/N=C2/CCCc3ccccc32)n1 end up with in this test?
inactive

Returns: the outcome recorded for CC(C)=CCOc1c2occc2cc2ccc(=O)oc12 in this assay.
active

What did this assay record as the result for COc1ccc2c(c1)[nH]c1c(C)nccc12 ?
inactive
